Data origin: patent US4061862A

Assay: Liquid chromatography, % free BL-S640 present (hydrolysis in solution)
Format: physicochemical
Cond: 1 hour; 1 mg./ml.
Measure Name: % free BL-S640 present at 1 h (%)
Respond numerically; units are % and should not be typed.

-- ask Please report the recorded % free BL-S640 present at 1 h for O=C(O)C1=C(CSc2c[nH]nn2)CSC2C(N3C(=O)C(c4ccc(O)cc4)NC3c3ccco3)C(=O)N12 (stereo not shown) .
-- reply 74.2

====

Assay: Mouse blood levels after PO administration
Assay type: in vivo
Cond: PO 100 mg./kg., 1 hr
Reported concentration at 1 h values are given for each entry in this list.
Respond numerically; units are ng/mL and should not be typed.

{"Compound": "O=C(O)C1=C(CSc2c[nH]nn2)CSC2C(N3C(=O)C(c4ccc(O)cc4)NC3c3ccco3)C(=O)N12 (centres unmarked)", "concentration at 1 h [ng/mL]": 48100}

Next compound, concentration at 1 h to be filled in.
-- ask Please report the recorded concentration at 1 h for `N[C@@H](C(=O)N[C@@H]1C(=O)N2C(C(=O)O)=C(CSc3c[nH]nn3)CS[C@H]12)c1ccc(O)cc1` .
-- reply 45400

====

Reported concentration at 3.5 h values are given for each entry in this list.
Assay: Mouse blood levels after PO administration
Type: in vivo
Cond: PO 100 mg./kg., 3.5 hr
Respond numerically; units are ng/mL and should not be typed.

{"Molecule": "O=C(O)C1=C(CSc2c[nH]nn2)CSC2C(N3C(=O)C(c4ccc(O)cc4)NC3c3ccco3)C(=O)N12 (centres unmarked)", "Reported Result": 14400}

Next molecule, concentration at 3.5 h to be filled in.
-- ask Please report the recorded concentration at 3.5 h for `N[C@@H](C(=O)N[C@@H]1C(=O)N2C(C(=O)O)=C(CSc3c[nH]nn3)CS[C@H]12)c1ccc(O)cc1` .
-- reply 10700

====

Assay: Loss of bioactivity on storage at elevated temperatures
Format: physicochemical
Cond: 56° C., 1 month
Measure Name: degraded at 720 h

-- ask Please report the recorded degraded at 720 h for NC(C(=O)NC1C(=O)N2C(C(=O)O)=C(CSc3c[nH]nn3)CSC12)c1ccc(O)cc1 (stereo not shown) .
-- reply < 10%

====

Assay: Water solubility
Format: physicochemical
Measure Name: solubility

-- ask Please report the recorded solubility for O=C(O)C1=C(CSc2c[nH]nn2)CSC2C(N3C(=O)C(c4ccc(O)cc4)NC3c3ccco3)C(=O)N12 (stereo not shown) [BL-S1052] .
-- reply > 400 mg/mL

====

Reported dose excreted at 24 h values are given for each entry in this list.
Assay: Urinary recovery after IM administration to rats
Format: in vivo
Cond: rat, urine, 10 mg/kg, IM 10 mg./kg., 6-24 hr, read-out: Urinary recovery, percentage of administered dose recovered
Respond numerically; units are % and should not be typed.

-- ask Please report the recorded dose excreted at 24 h for `N[C@@H](C(=O)N[C@@H]1C(=O)N2C(C(=O)O)=C(CSc3c[nH]nn3)CS[C@H]12)c1ccc(O)cc1` .
-- reply 1.4

-- ask Please do the same for O=C(O)C1=C(CSc2c[nH]nn2)CSC2C(N3C(=O)C(c4ccc(O)cc4)NC3c3ccco3)C(=O)N12 (centres unmarked) as well.
-- reply 2.4

====

Assay: Urinary recovery after IM administration to rats
Assay type: in vivo
Cond: rat, urine, 50 mg/kg, IM 50 mg./kg., 0-6 hr, read-out: Urinary recovery, percentage of administered dose recovered
Measure Name: dose excreted at 6 h (%)
Respond numerically; units are % and should not be typed.

{"Molecule": "O=C(O)C1=C(CSc2c[nH]nn2)CSC2C(N3C(=O)C(c4ccc(O)cc4)NC3c3ccco3)C(=O)N12 (centres unmarked)", "dose excreted at 6 h (%)": 40.3}

Next molecule, dose excreted at 6 h to be filled in.
-- ask Please report the recorded dose excreted at 6 h for `N[C@@H](C(=O)N[C@@H]1C(=O)N2C(C(=O)O)=C(CSc3c[nH]nn3)CS[C@H]12)c1ccc(O)cc1` .
-- reply 44.5

====

Assay: Mouse blood levels after IM administration
Assay type: in vivo
Cond: IM 10 mg./kg., 1 hr
Measure Name: concentration at 1 h (ng/mL)
Respond numerically; units are ng/mL and should not be typed.

{"Compound": "N[C@@H](C(=O)N[C@@H]1C(=O)N2C(C(=O)O)=C(CSc3c[nH]nn3)CS[C@H]12)c1ccc(O)cc1", "concentration at 1 h [ng/mL]": 9500}

Next compound, concentration at 1 h to be filled in.
-- ask Please report the recorded concentration at 1 h for O=C(O)C1=C(CSc2c[nH]nn2)CSC2C(N3C(=O)C(c4ccc(O)cc4)NC3c3ccco3)C(=O)N12 (centres unmarked) .
-- reply 11500

====

Assay: Urinary recovery after IM administration to rats
Type: in vivo
Cond: rat, urine, 50 mg/kg, IM 50 mg./kg., 0-24 hr, read-out: Urinary recovery, percentage of administered dose recovered
Measure Name: dose excreted at 24 h (%)
Respond numerically; units are % and should not be typed.

{"Molecule": "N[C@@H](C(=O)N[C@@H]1C(=O)N2C(C(=O)O)=C(CSc3c[nH]nn3)CS[C@H]12)c1ccc(O)cc1", "Reported Result": 47.2}

Next molecule, dose excreted at 24 h to be filled in.
-- ask Please report the recorded dose excreted at 24 h for O=C(O)C1=C(CSc2c[nH]nn2)CSC2C(N3C(=O)C(c4ccc(O)cc4)NC3c3ccco3)C(=O)N12 (centres unmarked) .
-- reply 42.4

====

Assay: Liquid chromatography, % free BL-S640 present (hydrolysis in solution)
Format: physicochemical
Cond: 2 hours; 1 mg./ml.
Measure Name: % free BL-S640 present at 2 h (%)
Respond numerically; units are % and should not be typed.

-- ask Please report the recorded % free BL-S640 present at 2 h for O=C(O)C1=C(CSc2c[nH]nn2)CSC2C(N3C(=O)C(c4ccc(O)cc4)NC3c3ccco3)C(=O)N12 (stereo not shown) .
-- reply 94.5

====

Assay: Loss of bioactivity on storage at elevated temperatures
Format: physicochemical
Cond: 100° C., 24 hours
Measure Name: degraded at 24 h

-- ask Please report the recorded degraded at 24 h for NC(C(=O)NC1C(=O)N2C(C(=O)O)=C(CSc3c[nH]nn3)CSC12)c1ccc(O)cc1 (stereo not shown) .
-- reply < 6%

====

Assay: Mouse blood levels after IM administration
Format: in vivo
Cond: IM 10 mg./kg., 0.25 hr
Measure Name: concentration at 0.25 h (ng/mL)
Respond numerically; units are ng/mL and should not be typed.

{"Compound": "O=C(O)C1=C(CSc2c[nH]nn2)CSC2C(N3C(=O)C(c4ccc(O)cc4)NC3c3ccco3)C(=O)N12 (centres unmarked)", "Unit String": "ng/mL", "concentration at 0.25 h": 15100}

Next compound, concentration at 0.25 h to be filled in.
-- ask Please report the recorded concentration at 0.25 h for `N[C@@H](C(=O)N[C@@H]1C(=O)N2C(C(=O)O)=C(CSc3c[nH]nn3)CS[C@H]12)c1ccc(O)cc1` .
-- reply 15700

====

Assay: Urinary recovery after IM administration to rats
Type: in vivo
Cond: rat, urine, 10 mg/kg, IM 10 mg./kg., 0-24 hr, read-out: Urinary recovery, percentage of administered dose recovered
Measure Name: dose excreted at 24 h

{"Molecule": "N[C@@H](C(=O)N[C@@H]1C(=O)N2C(C(=O)O)=C(CSc3c[nH]nn3)CS[C@H]12)c1ccc(O)cc1 [BL-S640]", "Reported Result": "25.7%"}

Next molecule, dose excreted at 24 h to be filled in.
-- ask Please report the recorded dose excreted at 24 h for O=C(O)C1=C(CSc2c[nH]nn2)CSC2C(N3C(=O)C(c4ccc(O)cc4)NC3c3ccco3)C(=O)N12 (centres unmarked) [BL-S1052] .
-- reply 24.1%

====

Reported concentration at 0.5 h values are given for each entry in this list.
Assay: Mouse blood levels after PO administration
Type: in vivo
Cond: PO 100 mg./kg., 0.5 hr

{"Molecule": "N[C@@H](C(=O)N[C@@H]1C(=O)N2C(C(=O)O)=C(CSc3c[nH]nn3)CS[C@H]12)c1ccc(O)cc1 [BL-S640]", "concentration at 0.5 h": "53400 ng/mL"}

-- ask Please report the recorded concentration at 0.5 h for O=C(O)C1=C(CSc2c[nH]nn2)CSC2C(N3C(=O)C(c4ccc(O)cc4)NC3c3ccco3)C(=O)N12 (centres unmarked) [BL-S1052] .
-- reply 45200 ng/mL

====

Assay: Mouse blood levels after IM administration
Type: in vivo
Cond: IM 10 mg./kg., 0.5 hr
Measure Name: concentration at 0.5 h (ng/mL)
Respond numerically; units are ng/mL and should not be typed.

-- ask Please report the recorded concentration at 0.5 h for O=C(O)C1=C(CSc2c[nH]nn2)CSC2C(N3C(=O)C(c4ccc(O)cc4)NC3c3ccco3)C(=O)N12 (centres unmarked) .
-- reply 15100

-- ask Please do the same for `N[C@@H](C(=O)N[C@@H]1C(=O)N2C(C(=O)O)=C(CSc3c[nH]nn3)CS[C@H]12)c1ccc(O)cc1` as well.
-- reply 13200
